# measurement_target: glycine-binding site of NMDA receptor complex (Rattus norvegicus)
# method_notes: Receptor affinity: [3H]glycine binding to rat cerebral cortex membrane fraction
# particulars: 100 nM [3H]glycine, 0° C. 10 min
Structures can show the parent of a compound that is named as a salt.
value_kind: IC50 (µM)
Your answer should be a plain number; it is taken to be in µM.

Quickly give me recorded IC50 for N#CN=c1[nH]c2cc(-n3ccc(=O)cc3)c([N+](=O)[O-])cc2[nH]c1=O [compound 2(2), monosodium salt] 7.5
